# assay-remarks: growth inhibition, single agents and combos, LFS_MB_2R, cell-based, cisplatin combos, synergistic combos for chromothripsis tumors (AID 1671457);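 further: cells exposed to compound for four days before readout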
# experimental-setup: LFS_MB_2R medulloblastoma cells, measured here: combination with cisplatin, at 0.5 µM, stronger effect = higher value
recorded-metric: inhibition (%)
Field format: number, assumed %, no unit text.

Consider the reported inhibition for these compounds:
> print(dat)
                                   compound  recorded.metric  quantity.unit  measured
1  CN(C)Cc1c(C(=O)NCCOc2ccc(C(=O)NO)cc2)oc2ccccc12       inhibition              %      71.4
2  C=C1[C@H](CO)[C@@H](O)C[C@@H]1n1cnc2c(=O)[nH]c(N)nc21       inhibition              %     -11.9

Shift focus to the following entry.
Given the entry CS(=O)(=O)c1ccc(-c2nnc(/C=C/c3nnc(-c4ccc(C#N)cc4)o3)n2-c2ccccc2Cl)nc1 , report its measured inhibition.
14.1

* * *

# assay-remarks: growth inhibition of DIPG cells – cell-based, MIPE5.0 library, qHTS (AID 1347068);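 on IC50: cells exposed to compound for 48 hours before viability readout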
# experimental-setup: SU-DIPG-XXV viability
Records with an inconclusive call do not appear. The source made the active and inactive calls. Cut-off not given; nearly all actives show IC50 up to about 30 µM.
recorded-metric: IC50

Consider the reported IC50 for these compounds:
> print(dat)
                                   compound  recorded.metric  measured
1  Cc1cc(Oc2ccc3nc(COc4ccc(CC5SC(=O)NC5=O)cc4)n(C)c3c2)cc(C)c1N (stereo unspecified)             IC50  inactive
2  NCc1ccc(OCCCc2sc(-c3ccc4c(c3)/C(=N/Nc3nc5ccccc5s3)CCC4)nc2C(=O)O)cc1             IC50  inactive
3  Nc1nc2c(c(=O)[nH]1)N(C=O)[C@H](CNc1ccc(C(=O)N[C@@H](CCC(=O)O)C(=O)O)cc1)CN2             IC50  inactive
4  OC[C@H]1O[C@@H](n2cnc3c2NC=NC[C@H]3O)C[C@@H]1O             IC50  inactive
5  OCCC#Cc1nc(-c2ccc(F)cc2)c(-c2ccncc2)n1CCCc1ccccc1             IC50  inactive

Given the entry COc1cc(OC)c(/C=C/S(=O)(=O)Cc2ccc(OC)c(OP(=O)(O)O)c2)c(OC)c1 , report its measured IC50.
0.0742 µM (active)

Here is the next compound: [2H]C([2H])(Nc1nc(-c2ccccc2C([2H])(C([2H])([2H])[2H])C([2H])([2H])[2H])ncc1C)c1ccc(-n2ccnn2)cc1
inactive

Here is the next compound: Nc1nc(Nc2ccc3c(c2)CC[C@@H](N2CCCC2)CC3)nn1-c1cc2c(nn1)-c1ccccc1CCC2
26.3 µM (active)

Here is the next compound: O=C(Nc1ccc(Oc2ccnc3[nH]ccc23)c(F)c1)c1cccn(-c2ccc(F)cc2)c1=O
inactive

Here is the next compound: Cn1cc(-c2[nH]c3cc(NC(=O)[C@H](N)C4CCCCC4)cc4c3c2C=NNC4=O)cn1
4.68 µM (active)

Here is the next compound: Cc1c(CCOc2ccc(C(=O)O)cc2)c2cc(Cl)ccc2n1C(c1ccccc1)c1ccccc1
inactive

Here is the next compound: CCn1c(=O)c(-c2ccc(Cl)cc2Cl)cc2cnc(Nc3ccc(N4CCNCC4)c(F)c3)nc21
inactive

Here is the next compound: Cc1nc(Nc2n[nH]c3c2CN(C(=O)N[C@H](CN(C)C)c2ccccc2)C3(C)C)c2sccc2n1
4.17 µM (active)

Here is the next compound: C[C@@H](OC[C@@]1(c2ccccc2)CC[C@]2(CCC(=O)N2)CN1)c1cc(C(F)(F)F)cc(C(F)(F)F)c1
20.9 µM (active)

Here is the next compound: CNCCn1c(=O)c2cc(OC)c(OC)cc2c2cnc3cc4c(cc3c21)OCO4
inactive

Here is the next compound: Cc1c[nH]c2nc(Nc3ccc(N4CCN(C)CC4)c(F)c3)nc(-c3cccc(CC#N)c3)c12
3.32 µM (active)

Here is the next compound: CCOc1ccccc1N=Nc1c(C)[nH]n(-c2nc(-c3ccccc3)cs2)c1=O
inactive

Here is the next compound: C[C@@]12O[C@@H](C[C@]1(O)CO)n1c3ccccc3c3c4c(c5c6ccccc6n2c5c31)CNC4=O
2.63 µM (active)

Here is the next compound: COc1ccc(-c2c(C)nn3c(NCCN4CCOCC4)cc(C)nc23)cc1OC
inactive

Here is the next compound: CN1C(N)=N[C@](C)(c2cc(NC(=O)c3ccc(F)cn3)ccc2F)CS1(=O)=O
inactive

Here is the next compound: Cc1ccc2c(c1)C(=O)[C@]1(O)CCN(c3ccccc3)C1=N2
inactive

Here is the next compound: Cc1ccc(-c2ccc(C)cn2)nc1
inactive

Here is the next compound: CC(C)(C)S(=O)(=O)c1ccc2nccc(Nc3n[nH]c4ccc(F)cc34)c2c1
inactive

Here is the next compound: COc1cc(-c2cc(-c3ccc(N4CCNCC4)cc3)cnc2C)cc(OC)c1OC
inactive

Here is the next compound: COc1cc2c(NC3CCN(C4CCCCC4)CC3)nc(N3CCCN(C(C)C)CC3)nc2cc1OCCCN1CCCCC1
5.9 µM (active)

Here is the next compound: C[C@@H](N)c1ccc(C(=O)Nc2ccnc3[nH]ccc23)cc1
18.6 µM (active)
